test system: SF-539 CNS; assay: NCI-60 one-dose screen, 48 h (100 = growth as untreated, 0 = no growth, -100 = all killed); conditions: 10 µM unless noted
About 83,000 compounds went through this panel and 20% of them were active in at least one assay; those are over-represented in the sample as a whole.
Overview of reported growth across a group of compounds:
Could you give me the number in %? Just the number is fine.

compound: COc1cc2ncnc(Nc3ccc(F)c(Cl)c3)c2cc1OCC(=O)N1CCN(c2ccc(F)cc2)CC1
measured: 100

compound: CCn1cc(CNc2ccc(C(=O)Nc3cc4cc(OC)c(OC)cc4c(C)n3)cc2)c(C)n1
measured: 75.5

compound: CCN(CC)CCCNCc1cc(-c2ccccc2)nc2cc(Cl)ccc12
measured: 40.4

compound: COc1ccc(-c2ccc(-c3ccc(C(=N)N)cn3)s2)cc1
measured: 94.3

Then there is this compound:
growth reported for this compound `Cc1cc(N2CCN(C)CC2)nc(NCc2cc(Nc3ccnc4cc(Cl)ccc34)ccc2F)n1` : -83.4
